// reported growth inhibition for each item listed
# TEST_METHOD_NOTES: NCI Yeast Anticancer Drug Screen. Data for the cln2 rad14 strain (AID 165);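 also: 0% = growth equal to vehicle treated cultures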
# MEASUREMENT_CONDITIONS: S. cerevisiae cln2 rad14 strain, at 50.0 µM, active compounds read high
Compounds without any hit were thinned out: in the full panel of roughly 79,000, 15% have a hit.
# number only, unit % dropped from output

Observe how each entry below is paired with its result.
molecule=N=c1c(C(=O)O)cccn1O measured_number=-50.9
molecule=CC(C)c1ccc(CN)cc1 measured_number=6.5
molecule="CCc1ccccc1OCC(O)CO (stereo not drawn)" measured_number=-11.5
molecule=O=C(NCCCCl)c1c(O)c2ccccc2[nH]c1=O measured_number=18.1
molecule=C=C1N(c2cc(OC)c(OC)c(OC)c2)C(=O)OC12CCCCC2 measured_number=38.7

Looking for the measured growth inhibition of CC(NNC(=O)c1ccncc1)c1ccc(Cl)cc1Cl (stereo not drawn) , can you help?
22.6

Given C/C=C(\C)C(=O)OC1CC(OC(=O)/C(C)=C/C)C2(C)C3C(=O)C=C(C)C2C3C1(C)C (stereo not drawn) , state its recorded growth inhibition.
25.6

Ref: PubChem BioAssay (NCI)
